Data origin, for the record: ChEMBL document CHEMBL2150930

# Measured On: Acetylcholinesterase (Electrophorus electricus)
# Sequence (O42275 whole entry): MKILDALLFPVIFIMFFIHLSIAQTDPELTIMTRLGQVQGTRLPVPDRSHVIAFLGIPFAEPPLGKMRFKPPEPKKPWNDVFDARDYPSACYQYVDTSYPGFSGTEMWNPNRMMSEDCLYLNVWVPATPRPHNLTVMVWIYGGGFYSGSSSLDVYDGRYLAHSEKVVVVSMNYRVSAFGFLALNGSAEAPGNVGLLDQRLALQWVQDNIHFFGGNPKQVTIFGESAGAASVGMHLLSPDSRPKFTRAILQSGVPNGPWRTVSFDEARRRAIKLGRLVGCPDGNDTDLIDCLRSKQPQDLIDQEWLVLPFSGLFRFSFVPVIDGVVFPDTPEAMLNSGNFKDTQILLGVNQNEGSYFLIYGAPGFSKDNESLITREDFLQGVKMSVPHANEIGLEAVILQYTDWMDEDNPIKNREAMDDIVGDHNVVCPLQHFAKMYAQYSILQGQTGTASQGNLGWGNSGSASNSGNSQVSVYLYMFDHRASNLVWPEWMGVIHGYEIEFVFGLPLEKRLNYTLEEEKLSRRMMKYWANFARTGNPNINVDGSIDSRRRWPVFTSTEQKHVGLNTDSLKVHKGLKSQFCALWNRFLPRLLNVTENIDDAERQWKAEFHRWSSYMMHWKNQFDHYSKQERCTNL
Classify: True when IC50 is strictly less than 2 µM; False when IC50 is not.

Consider the following illustrative entries.
Chemical String | Assigned Label
O=C(/C=C/c1ccc(O)c(O)c1)NCCCCCCNc1c2c(nc3ccccc13)CCCC2 | True
O=C(/C=C/c1ccc(O)c(O)c1)NCCCCCCNc1c2c(nc3cc(Cl)ccc13)CCCC2 | False

Now consider the entry below.
Problem: For the molecule `O=C(/C=C/c1ccc(O)c(O)c1)NCCNc1c2c(nc3cc(Cl)ccc13)CCCC2` , is IC50 under 2 µM?
True

* * *

# Measured On: Cholinesterase (Equus caballus, UniProt P81908)
# Sequence (P81908 whole entry): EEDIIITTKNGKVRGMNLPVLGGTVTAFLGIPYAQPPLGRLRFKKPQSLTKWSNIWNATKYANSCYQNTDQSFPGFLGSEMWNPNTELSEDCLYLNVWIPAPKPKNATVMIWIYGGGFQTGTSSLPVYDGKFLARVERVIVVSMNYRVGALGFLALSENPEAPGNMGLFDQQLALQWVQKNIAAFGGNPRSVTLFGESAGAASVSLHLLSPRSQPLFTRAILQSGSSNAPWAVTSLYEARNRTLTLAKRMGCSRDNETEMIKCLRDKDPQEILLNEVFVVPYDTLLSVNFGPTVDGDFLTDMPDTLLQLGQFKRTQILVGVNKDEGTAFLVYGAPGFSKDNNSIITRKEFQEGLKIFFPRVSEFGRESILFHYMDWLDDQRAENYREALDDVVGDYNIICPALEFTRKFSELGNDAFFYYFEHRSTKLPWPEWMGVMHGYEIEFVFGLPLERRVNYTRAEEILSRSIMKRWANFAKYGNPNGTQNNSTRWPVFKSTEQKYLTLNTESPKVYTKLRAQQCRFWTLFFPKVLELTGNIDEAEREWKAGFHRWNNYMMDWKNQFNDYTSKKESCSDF
Consider the following compounds; for each one, report its IC50.
Give bare numbers, in µM.

Completed entries (count: 5):
Chemical String | Output Unit | IC50
O=C(/C=C/c1ccc(O)c(O)c1)NCCCNc1c2c(nc3cc(Cl)ccc13)CCCC2 | µM | 29.5
O=C(/C=C/c1ccc(O)c(O)c1)NCCCCCCNc1c2c(nc3ccccc13)CCCC2 | µM | 3.9
O=C(/C=C/c1ccc(O)c(O)c1)NCCCNc1c2c(nc3ccccc13)CCCC2 | µM | 0.0837
O=C(/C=C/c1ccc(O)c(O)c1)NCCNc1c2c(nc3ccccc13)CCCC2 | µM | 2.3
O=C(/C=C/c1ccc(O)c(O)c1)NCCNc1c2c(nc3cc(Cl)ccc13)CCCC2 | µM | 5.5

# ---- query compound ----
Notebook entry, Cholinesterase (Equus caballus, UniProt P81908) assay: IC50 of `O=C(/C=C/c1ccc(O)c(O)c1)NCCCCCCNc1c2c(nc3cc(Cl)ccc13)CCCC2` = ?
3.8

* * *

For reference, IC50 measured on Acetylcholinesterase (Electrophorus electricus):
One number for each entry, in nM.

Chemical String | Output Unit | IC50
O=C(/C=C/c1ccc(O)c(O)c1)NCCNc1c2c(nc3ccccc13)CCCC2 | nM | 1800
O=C(/C=C/c1ccc(O)c(O)c1)NCCCNc1c2c(nc3cc(Cl)ccc13)CCCC2 | nM | 300

# ---- query compound ----
What does the record list as IC50 for `O=C(/C=C/c1ccc(O)c(O)c1)NCCCNc1c2c(nc3ccccc13)CCCC2` ?
8.8
